Measured half-life, listed per entry for reference.
Test: Half life in cynomolgus monkey at 1 mg/kg, iv
Format: ADME, organism-based, Macaca fascicularis
Details: in vivo

>  <molecule.smiles>
C[C@@H](C1CC1)N1Cc2cc(-c3ccn4nc(N)c(C(=O)N[C@H]5CC[C@@](C)(O)CC5)c4n3)cc(OC(F)(F)F)c2C1=O

>  <half-life>
3.65 h

$$$$
>  <molecule.smiles>
C[C@@H](C1CC1)N1Cc2cc(-c3ccn4nc(N)c(C(=O)N[C@H]5CC[C@@](C)(O)CC5)c4n3)cc(OC(F)F)c2C1=O

>  <half-life>
3.18 h

$$$$

###

Assay: AUC(0 to infinity) in Sprague-Dawley rat at 10 mg/kg, po measured up to 24 hrs by LC-MS/MS analysis analysis
Assay type: ADME, organism-based
Set-up: dose 10 mg/kg, time < 24 hrs, route po
Conditions: in vivo
Each record here notes measured AUC(0-inf).

>  <molecule.smiles>
C[C@@H](C1CC1)N1Cc2cc(-c3ccn4nc(N)c(C(=O)N[C@H]5CC[C@@](C)(O)CC5)c4n3)cc(OC(F)F)c2C1=O

>  <unit.abbreviation>
ng·h/mL

>  <AUC(0-inf)>
8160

$$$$
>  <molecule.smiles>
C[C@@H](C1CC1)N1Cc2cc(-c3ccn4nc(N)c(C(=O)N[C@H]5CC[C@@](C)(O)CC5)c4n3)cc(OC(F)(F)F)c2C1=O

>  <unit.abbreviation>
ng·h/mL

>  <AUC(0-inf)>
249

$$$$

###

Attribute: IC50
Target: Phosphatidylinositol 4,5-bisphosphate 3-kinase catalytic subunit gamma isoform (Homo sapiens)
Sequence (P48736 whole entry, canonical isoform): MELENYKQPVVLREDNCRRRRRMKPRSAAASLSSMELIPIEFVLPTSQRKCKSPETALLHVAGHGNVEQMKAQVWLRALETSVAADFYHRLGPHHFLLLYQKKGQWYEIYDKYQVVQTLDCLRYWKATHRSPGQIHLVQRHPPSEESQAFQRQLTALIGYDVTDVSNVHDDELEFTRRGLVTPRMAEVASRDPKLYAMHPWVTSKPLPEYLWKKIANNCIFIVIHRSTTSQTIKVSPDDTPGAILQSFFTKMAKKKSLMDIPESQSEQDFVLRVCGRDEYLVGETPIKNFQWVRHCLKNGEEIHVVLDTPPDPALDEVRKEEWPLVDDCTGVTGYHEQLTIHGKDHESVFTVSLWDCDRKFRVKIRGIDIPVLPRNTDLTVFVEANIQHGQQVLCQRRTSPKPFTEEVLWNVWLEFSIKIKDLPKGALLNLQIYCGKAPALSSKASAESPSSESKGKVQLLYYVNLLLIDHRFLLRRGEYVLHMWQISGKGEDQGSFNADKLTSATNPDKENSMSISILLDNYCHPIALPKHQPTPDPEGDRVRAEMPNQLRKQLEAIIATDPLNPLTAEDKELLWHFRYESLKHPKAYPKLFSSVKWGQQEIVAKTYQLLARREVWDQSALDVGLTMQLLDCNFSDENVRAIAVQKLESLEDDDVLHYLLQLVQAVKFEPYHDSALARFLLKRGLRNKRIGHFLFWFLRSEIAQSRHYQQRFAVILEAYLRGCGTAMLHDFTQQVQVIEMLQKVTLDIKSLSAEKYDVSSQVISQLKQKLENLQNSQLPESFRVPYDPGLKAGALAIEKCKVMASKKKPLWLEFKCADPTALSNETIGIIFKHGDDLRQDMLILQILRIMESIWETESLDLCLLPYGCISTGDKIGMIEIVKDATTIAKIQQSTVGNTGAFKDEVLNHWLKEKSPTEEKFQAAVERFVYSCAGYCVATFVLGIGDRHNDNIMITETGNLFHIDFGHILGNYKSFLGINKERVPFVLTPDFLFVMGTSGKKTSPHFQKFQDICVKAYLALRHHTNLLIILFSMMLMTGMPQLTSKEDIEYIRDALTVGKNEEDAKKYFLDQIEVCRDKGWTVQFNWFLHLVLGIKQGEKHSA
Assay: Inhibition of PI3Kgamma (unknown origin) in […] stimulated human THP-1 cells assessed as reduction in Akt phosphorylation level at Ser473 residue preincubated for 60 mins followed by rhMCP-1 stimulation and measured after 2 mins by AlphaLisa assay
Assay type: cell-based
observable: IC50 (nM)

>  <molecule.smiles>
C[C@@H](C1CC1)N1Cc2cc(-c3ccn4nc(N)c(C(=O)NC5CC5)c4n3)cc(S(C)(=O)=O)c2C1=O

>  <observable>
IC50

>  <result.value>
43

$$$$
>  <molecule.smiles>
CNS(=O)(=O)c1cc(-c2ccn3nc(N)c(C(=O)N[C@H]4CC[C@](C)(O)CC4)c3n2)cc2c1C(=O)N([C@@H](C)C(F)(F)F)C2

>  <observable>
IC50

>  <result.value>
32

$$$$
>  <molecule.smiles>
C[C@@H](C1CC1)N1Cc2cc(-c3ccn4nc(N)c(C(=O)NC5CC5)c4n3)cc(C(F)(F)F)c2C1=O

>  <observable>
IC50

>  <result.value>
103

$$$$
>  <molecule.smiles>
Cc1cc(-c2ccn3nc(N)c(C(=O)NC4COC4)c3n2)cc2c1C(=O)N([C@@H](C)C1CC1)C2

>  <observable>
IC50

>  <result.value>
156

$$$$
>  <molecule.smiles>
C[C@@H](C1CC1)N1Cc2cc(-c3ccn4nc(N)c(C(=O)N[C@H]5CC[C@](C)(O)CC5)c4n3)cc(NS(C)(=O)=O)c2C1=O

>  <observable>
IC50

>  <result.value>
22

$$$$
>  <molecule.smiles>
C[C@@H](C1CC1)N1Cc2cc(-c3ccn4nc(N)c(C(=O)N[C@@H](CO)C5CC5)c4n3)cc(OC(F)(F)F)c2C1=O

>  <observable>
IC50

>  <result.value>
72

$$$$
>  <molecule.smiles>
Cc1cc(-c2ccn3nc(N)c(C(=O)NC4CCC4)c3n2)cc2c1C(=O)N([C@@H](C)C1CC1)C2

>  <observable>
IC50

>  <result.value>
292

$$$$
>  <molecule.smiles>
Cc1cc(-c2ccn3nc(N)c(C(=O)Nc4cnn(C)c4)c3n2)cc2c1C(=O)N([C@@H](C)C1CC1)C2

>  <observable>
IC50

>  <result.value>
127

$$$$
>  <molecule.smiles>
C[C@@H](C1CC1)N1Cc2cc(-c3ccn4nc(N)c(C(=O)NC5CC5)c4n3)cc(Cl)c2C1=O

>  <observable>
IC50

>  <result.value>
103

$$$$
>  <molecule.smiles>
Cc1cc(-c2ccn3nc(N)c(C(=O)NC4CC4)c3n2)cc2c1C(=O)N(CC1CC1)C2

>  <observable>
IC50

>  <result.value>
258

$$$$
